This collection of values is drawn from patent US9440964B2.

The following compounds are listed with their measured pest or weed control at 200 ppm values.
tested on: Green Peach Aphid (GPA) (Myzus persica); test: Bioassay on Green Peach Aphid (GPA), cabbage seedling foliar spray; type: in vivo; settings: 72 h, corrected % control (Abbott), 200 ppm foliar spray on cabbage, three days, read-out: Rating GPA

>  <Line Notation>
Cc1cccc(C)c1N1C(=O)CS/C1=N\C(=O)Nc1ccc(-c2ncn(-c3ccc(OC(F)(F)F)cc3)n2)cc1

>  <pest or weed control at 200 ppm>
0 to 80%

$$$$
>  <Line Notation>
Cc1cccc(C)c1N/C(=N/C(=O)Nc1ccc(-c2ncn(-c3ccc(OC(F)(F)F)cc3)n2)cc1)SCOC(=O)C(C)C

>  <pest or weed control at 200 ppm>
0 to 80%

$$$$
>  <Line Notation>
COc1cc(C)c(N2C(=O)CS/C2=N\C(=O)Nc2ccc(-c3ncn(-c4ccc(OC(F)(F)F)cc4)n3)cc2)c(C)c1

>  <pest or weed control at 200 ppm>
0 to 80%

$$$$
